Assay: Toxicity liver stage against HepG2, at 10uM
Type: cell-based
Design: test concentration 10 uM, cell line HepG2-A16-CD81EGFP
Settings: human, HepG2-A16-CD81EGFP cells; read-out: INHIBITION
Exercise: state measured cytotoxicity at 10 µM for each of the molecules provided.
Give bare numbers, in %.

Reference set, count: 3
CCc1nc(C2CCCN(C(=O)c3c(C)noc3C)C2)no1 (stereo unspecified) ... -12.8
CSCC(=O)N(Cc1ccccn1)Cc1ccccc1C ... 7.79
Cc1[nH]c2c(F)cccc2c1CC(=O)NCCCNc1cccnc1 ... 1.56

Hey, quick one: what's cytotoxicity at 10 µM for each of these?
1. Cc1nc(C)n(CCCNC(=O)C(C)n2ccnc2C(C)C)n1 (stereo unspecified)
2. COCCNC(=O)N1CCCC(COc2ccccc2)C1 (stereo unspecified)
3. c1cnnc(N2CCCC(NCc3nnc(-c4ccco4)o3)C2)c1 (stereo unspecified)

-4.97
0.186
-0.986

###

Exercise: state measured cytotoxicity at 10 µM for each of the molecules provided.
Assay: Toxicity liver stage against HepG2, at 10uM
Type: cell-based
Parameters: test concentration 10 uM, cell line HepG2-A16-CD81EGFP
Details: human, HepG2-A16-CD81EGFP cells; read-out: INHIBITION

Reference set, count: 10
CCS(=O)(=O)CC(=O)Nc1c(C)cnn1Cc1cc(F)ccc1F ... -4.96%
CCS(=O)(=O)N1CCOC2(CCCN(c3ncc(F)cn3)C2)C1 (configuration not stated) ... 5.86%
CCc1nc(C)c(CNC(=O)CCCN2CCCCC2)s1 ... -4.65%
CC(C)NC(=O)N1CCC2(CC(=O)N(c3cccc(C#N)c3)C2)C1 (configuration not stated) ... 5.66%
Cc1ncc2c(c1C(=O)O)CCN(c1ncc(F)cn1)C2 ... -2.19%
COc1nccnc1N1CCN(Cc2cccc(F)c2)C(=O)C1 ... 3.77%
CCOC(=O)c1coc(N2CCN(Cc3cccc(OC)c3)C(=O)C2)n1 ... -1.83%
Cc1ncc(CN2CCC3(CCCN(CC4CCC4)C3)C2)cn1 (configuration not stated) ... -6.7%
Cc1cc(C)n(-c2ccc(N3CCC(O)CC3)nc2)n1 ... -5.08%
Cc1cc(F)c2c(c1)CCCN2Cc1cc(=O)n(C)c(=O)n1C ... 8.1%

Hey, quick one: what's cytotoxicity at 10 µM for each of these?
1. CCc1nnc(Nc2cccc(C3CCN(C(C)=O)CC3)n2)s1
2. O=C(NCc1cccc(N2CC=CC2)c1)NC1CC1

0.579%
9.34%

###

Assay: Toxicity liver stage against HepG2, at 10uM
Type: cell-based
Set-up: test concentration 10 uM, cell line HepG2-A16-CD81EGFP
Conditions: human, HepG2-A16-CD81EGFP cells; read-out: INHIBITION
observation_type: cytotoxicity at 10 µM (%)
Answers are plain numbers, in %.

Hey, quick one: what's cytotoxicity at 10 µM for each of these?
1. COc1ncc(CN(CCCN2CCOCC2)Cc2ccc(C)o2)cn1
2. CN(CCn1ccc2ccccc21)C(=O)Cc1nnn[nH]1
3. CNC(=O)Cc1noc(Cc2ccc3c(c2)CCCC3)n1
4. COc1ccc(OCC2CCCN(Cc3ccncc3)C2)cc1 (centres undefined)
5. CC(C)n1nc2c(cc1=O)CN(Cc1nc(-c3ccoc3)no1)CC2
6. CCCS(=O)(=O)N1CC[C@@H]2[C@@H]1CC(=O)N2Cc1csc(C)n1
7. O=C1CC2(CCN(c3nncs3)C2)CN1c1ccc2c(c1)OCCO2 (centres undefined)

-33
-8.93
-14.1
-8.44
10.2
-134
6.66

Hey, quick one: what's cytotoxicity at 10 µM for each of these?
1. CSc1ccccc1NC(=O)c1ccc(N2CCOCC2)nn1
2. Cc1cccc(-n2cnc(Cl)c2C(=O)O)c1

0.951
-1.26

Hey, quick one: what's cytotoxicity at 10 µM for each of these?
1. COCC(=O)N(CCC(=O)OC)CC1CCCO1 (centres undefined)
2. Cn1ccnc1CN1CCC2(CC1)CCN(Cc1ccoc1)C2
3. CCCS(=O)(=O)N1C[C@H]2CC[C@@H](C1)N(Cc1cscn1)C2=O
4. COc1ccc(Cc2nnc3n2N=C(C(C)(C)C)CS3)cc1
5. CC(Cn1cccn1)NC(=O)NCc1ccccn1 (centres undefined)
6. CN(C)c1cccc(C2CCCN2c2nc3c(cnn3C)c(=O)[nH]2)c1 (centres undefined)
7. CC(=O)N1CC[C@H]2CC(=O)N(C3CCCCC3)CC[C@H]2C1
8. O=C(O)c1ccc(C2CCCN(Cc3ccc(-c4cc[nH]n4)o3)C2)cc1 (centres undefined)

1. 1.74
2. -6.08
3. 12.8
4. 10.7
5. 6.79
6. 0.91
7. 0.325
8. -2.43

Hey, quick one: what's cytotoxicity at 10 µM for each of these?
1. COCCNC(=O)c1ccc2c(=O)n3c(nc2c1)CCN(C)CC3
2. COC(=O)C(CO)NC(=O)c1cn(Cc2ccccc2F)nn1 (centres undefined)

-1.02
-1.14

Hey, quick one: what's cytotoxicity at 10 µM for each of these?
1. COCCN1CCCC2(CCN(c3nccc4ccccc34)C2)C1=O (centres undefined)
2. CC(C)Cc1ncc(CNc2cnccc2CO)s1
3. CSc1ncnc(NCc2ccco2)c1C#N
4. COc1c(C)cnc(CN2CCn3c(C)nnc3C2)c1C
5. COc1cc(N2CCCC3(CCN(c4cncnc4)C3=O)C2)ncn1 (centres undefined)

-0.212
-6.53
0.0868
-4.97
-103

###

Assay: Toxicity liver stage against HepG2, at 10uM
Type: cell-based
Design: test concentration 10 uM, cell line HepG2-A16-CD81EGFP
Settings: human, HepG2-A16-CD81EGFP cells; read-out: INHIBITION
cytotoxicity at 10 µM of -10% or higher: condition met. Under -10%: condition not met.

API: above_or_equal(metric=cytotoxicity at 10 µM, cutoff=-10%) for item `Cn1ccc2c(C(=O)NCCCN3CCCC3)cccc21`
condition not met

API: above_or_equal(metric=cytotoxicity at 10 µM, cutoff=-10%) for item CCn1ccnc1CN1CCN(C(C)C(=O)N2CCCCCC2)CC1 (stereo not given)
condition met

API: above_or_equal(metric=cytotoxicity at 10 µM, cutoff=-10%) for item `O=C(c1ccc(-c2ccoc2)nc1)N1CCCN(C2CCCCC2)CC1`
condition met

API: above_or_equal(metric=cytotoxicity at 10 µM, cutoff=-10%) for item CC(c1ccco1)N(C(=O)c1cc2c([nH]c1=O)CCCC2=O)C1CC1 (stereo not given)
condition met

API: above_or_equal(metric=cytotoxicity at 10 µM, cutoff=-10%) for item `Cn1nc(C2CN(C(=O)c3ccncc3)C2)c2nccnc21`
condition met

API: above_or_equal(metric=cytotoxicity at 10 µM, cutoff=-10%) for item CCOC1CCCN(C(=O)c2nn(-c3ccccc3F)cc2O)C1 (stereo not given)
condition met

API: above_or_equal(metric=cytotoxicity at 10 µM, cutoff=-10%) for item `CN1CCN(C(=O)c2cc(C#N)cs2)c2ccccc2C1`
condition met

###

Assay: Toxicity liver stage against HepG2, at 10uM
Assay type: cell-based
Parameters: test concentration 10 uM, cell line HepG2-A16-CD81EGFP
Details: human, HepG2-A16-CD81EGFP cells; read-out: INHIBITION
Exercise: state measured cytotoxicity at 10 µM for each of the compounds provided.
Give bare numbers, in %.

Cc1cccnc1NCCNC(=O)c1cnc(-c2cccs2)nc1O ... 4.62
Cc1cnn(CCNC(C)C(=O)NCCc2cccs2)c1 (centres undefined) ... -9.38
CN(C)C(C(=O)N1CC(Oc2ccccc2F)C1)c1ccc(F)cc1 (centres undefined) ... 1.28
O=C(O)CC1COCCN1CCCc1ccccc1 (centres undefined) ... -0.541
CNC(=O)Cc1noc(-c2cc3c(s2)CCCCCC3)n1 ... 3.76
Cc1nc[nH]c1CN1CCC2(CC1)CC(Nc1ncccn1)CO2 (centres undefined) ... 12.2
COCC(=O)N1CC[C@H]2C[C@H](C)O[C@@H]2C1 ... -0.877
CCc1n[nH]c(C2CN(CC(=O)NCCc3ccsc3)CCO2)n1 (centres undefined) ... -11

Hey, quick one: what's cytotoxicity at 10 µM for each of these?
1. Cn1ccnc1-c1noc(NCc2ccc3c(c2)OCCO3)n1
2. CC(C)(C)n1nc(C(=O)NC2CCN(CC(N)=O)CC2)cc1C1CC1
3. CC(C(=O)N1CCCN(c2ncccc2C#N)CC1)n1cncn1 (centres undefined)
4. COc1cccc(S(=O)(=O)Cc2noc(CC(C)C)n2)c1
5. Cn1ccnc1S(=O)(=O)C(C(=O)N1CCCCC1)c1ccccc1 (centres undefined)

-0.408
0.196
-6.54
12
24.5

###

Experiment: Toxicity liver stage against HepG2, at 10uM
Format: cell-based
Set-up: test concentration 10 uM, cell line HepG2-A16-CD81EGFP
Conditions: human, HepG2-A16-CD81EGFP cells; read-out: INHIBITION
observation_type: cytotoxicity at 10 µM

Reference set, count: 10
COCCCS(=O)(=O)N1CCN(Cc2cccn2C)CC1 ... -9.53%
CCc1nc(C(=O)N2CCN(C)CC2)nn1-c1ccccc1Cl ... 2.1%
O=C(c1ccccn1)N1CCc2ncnc(-c3ccncc3)c2CC1 ... -1.82%
CC(C)(C)n1ncc2c1CCCC2NCc1cccc(C(N)=O)c1 (stereo unspecified) ... -0.25%
O=C(C1CCC2(CCN(CC3CCOCC3)CC2)O1)N1CCCCO1 (stereo unspecified) ... 1.08%
CCc1noc(CNc2ccc(F)cc2OCC2CC2)n1 ... -7.21%
O=C(CCN1CCCCO1)NCc1cn2c(n1)SCC2 ... 6.49%
Cc1nc(CCN2CCCCC2)n(-c2ccc(F)cc2)n1 ... -2.23%
CCCS(=O)(=O)N1CCC2(CC1)CC(N1CCCC1)c1ccccc12 (stereo unspecified) ... -0.664%
O=C(N1CCCO1)[C@@]12CCO[C@@H]1CCN(Cc1ccc(F)cc1)C2 ... -6.1%

Moving on to the next molecule.
cytotoxicity at 10 µM lookup needed for `CO[C@@H]1CC[C@@H](NC(=O)c2ccc(OCCN3CCCC3)cc2)[C@H]1O` , thanks.
-3.83%
